From: patent US20240336681A1

The following binders are shown together with reported Kd values.
Biological target: T1, recombinant C-terminally His-tagged human CD47 (extracellular domain) (human, UniProt Q08722 19-141)
T1 construct: also called recombinantly expressed human CD47 extracellular domain
T1 sequence (Q08722 19-141): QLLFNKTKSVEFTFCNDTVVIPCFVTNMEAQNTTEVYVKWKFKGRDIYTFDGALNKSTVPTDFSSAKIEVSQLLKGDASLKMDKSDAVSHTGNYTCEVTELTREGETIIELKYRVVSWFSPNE
Experiment: SPR, Biacore X100; construct captured by anti-human Fc on CM5 chip, human CD47 extracellular domain as analyte, 1:1 fit
All answers are understood in nM, so give the number only.

Worked examples, 3 binders total:
2D6-076 (antibody, IgG1, V domains shown, hIgG1 (humanized IgG1); only the variable domains are tied to the construct; also called VH2/VL2.7) VH: QVELVQSGPEVKKPGSSVKVSCKASGYTFPSYDINWVRQRPGQGLEWMGWIYPRDGSPKYNEKFKGRVTITADTSTSTAYMELHSLRSEDTAVYYCARSVYYGTQFAYWGQGTLVTVSA VL: DIVLTQSPSSLAVSLGERVTMSCKSSQSLLNSRTRKNYLAWYQQKPGQPPKLLIYWASTRDSGVPDRFSGSGSGTDFTLTISSLQAEDVAVYYCQQSFNLVTFGGGTKLEIK
974
2D6-015 (antibody, IgG4, V domains shown, hIgG4 (humanized IgG4); only the variable domains are tied to the construct; also called VH4/VL3) VH: QVQLVESGGGLVQPGGSLRLSCAASGYTFPSYDINWVRQAPGKGLEWVGWIYPRDGSPKYNEKFKGRFTISADTSKNTAYLQMNSLRAEDTAVYYCARSVYYGTQFAYWGQGTLVTVSS VL: DIQMTQSPSSLSASVGDRVTITCKSSQSLLNSRTRKNYLAWYQQKPGKAPKLLIYWASTRDSGVPSRFSGSGSGTDFTLTISSLQPEDFATYYCKQSFNLVTFGQGTKVEIK
311
2D6-067 (antibody, IgG1, V domains shown, hIgG1 (humanized IgG1); only the variable domains are tied to the construct; also called VH2.5/VL2) VH: QVELVQSGPEVKKPGSSVKVSCKASGYTFPSYDINWVRQRPGQGLEWMGWIYPRFGSPKYNEKFKGRVTITADTSTSTAYMELHSLRSEDTAVYYCARSVYYGTQFAYWGQGTLVTVSA VL: DIVMTQSPSSLAVSLGERVTMSCKSSQSLLNSRTRKNYLAWYQQKPGQPPKLLIYWASTRDSGVPDRFSGSGSGTDFTLTISSLQAEDVAVYYCKQSFNLVTFGGGTKLEIK
219

# next binder below
// Kd value for 2D6-066 (antibody, IgG1, V domains shown, hIgG1 (humanized IgG1); only the variable domains are tied to the construct; also called VH2.4/VL2) VH: QVELVQSGPEVKKPGSSVKVSCKASGYTFPSYDINWVRQRPGQGLEWMGWIIPRDGSPKYNEKFKGRVTITADTSTSTAYMELHSLRSEDTAVYYCARSVYYGTQFAYWGQGTLVTVSA VL: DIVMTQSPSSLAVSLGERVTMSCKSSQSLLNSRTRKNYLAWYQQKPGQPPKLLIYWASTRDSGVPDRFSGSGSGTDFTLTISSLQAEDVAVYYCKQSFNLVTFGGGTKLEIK : 1320
